Assign Minimum growth inhibiting concentration (MIC) to each entry below.
- Tested on: Salmonella enteritidis
- assayDetails: Minimum growth inhibiting concentration, agar plate method
- Type: cell-based
- conditionNotes: strain resistant to the respective antibiotic (Table 2)
One number for each entry, in µg/mL.

# compound, systemUnderTest, unitAnnotation, testValue
data = [
    ("CN(C)[C@@H]1C(O)=C(C(N)=O)C(=O)[C@@]2(O)C(O)=C3C(=O)c4c(O)cccc4[C@@](C)(O)[C@H]3C[C@@H]12 [TC, Tetracycline]", "Salmonella enteritidis", "µg/mL", 12.5),
]

Please look at the following compound next.
Requested read-out: Minimum growth inhibiting concentration (MIC). Entry: O=C(N[C@H](CO)[C@H](O)c1ccc([N+](=O)[O-])cc1)C(Cl)Cl [CP, Chlorampheniocol]
12.5

* * *

- System: Salmonella enteritidis
- assayDetails: Minimum growth inhibiting concentration, agar plate method
- Format: cell-based
- conditionNotes: original strain
Give Minimum growth inhibiting concentration (MIC) for every item shown.
Answers are plain numbers, in µg/mL.

# compoundString, testValue
rows = [
    ("O=C(N[C@H](CO)[C@H](O)c1ccc([N+](=O)[O-])cc1)C(Cl)Cl", 0.8),
    ("CN(C)[C@@H]1C(O)=C(C(N)=O)C(=O)[C@@]2(O)C(O)=C3C(=O)c4c(O)cccc4[C@@](C)(O)[C@H]3C[C@@H]12", 1.6),
    ("CC1(C)S[C@@H]2[C@H](NC(=O)Cc3ccccc3)C(=O)N2[C@H]1C(=O)O", 6.3),
]

Could you now look at the following molecule, please?
Which Minimum growth inhibiting concentration (MIC) value belongs to [H]/N=C(/N)N[C@H]1[C@H](O)[C@@H](O)[C@H](O[C@@H]2O[C@@H](C)[C@](O)(C=O)[C@H]2O[C@@H]2O[C@@H](CO)[C@H](O)[C@@H](O)[C@@H]2NC)[C@@H](N/C(N)=N\[H])[C@@H]1O ?
25

* * *

- System: Klebsiella pneumoniae
- assayDetails: Minimum growth inhibiting concentration, agar plate method
- Type: cell-based
- conditionNotes: original strain
Assign Minimum growth inhibiting concentration (MIC) to each entry below.

# compoundString, testValue
rows = [
    ("CC1(C)S[C@@H]2[C@H](NC(=O)Cc3ccccc3)C(=O)N2[C@H]1C(=O)O", "6.3 µg/mL"),
]

// input: 3 molecules below; output: Minimum growth inhibiting concentration (MIC) for each
1. O=C(N[C@H](CO)[C@H](O)c1ccc([N+](=O)[O-])cc1)C(Cl)Cl
2. [H]/N=C(/N)N[C@H]1[C@H](O)[C@@H](O)[C@H](O[C@@H]2O[C@@H](C)[C@](O)(C=O)[C@H]2O[C@@H]2O[C@@H](CO)[C@H](O)[C@@H](O)[C@@H]2NC)[C@@H](N/C(N)=N\[H])[C@@H]1O
3. CN(C)[C@@H]1C(O)=C(C(N)=O)C(=O)[C@@]2(O)C(O)=C3C(=O)c4c(O)cccc4[C@@](C)(O)[C@H]3C[C@@H]12

["0.8 µg/mL", "1.6 µg/mL", "1.6 µg/mL"]

* * *

Consider the following compounds; for each one, report its Minimum growth inhibiting concentration (MIC).
- Tested on: Escherichia coli
- assayDetails: Minimum growth inhibiting concentration, agar plate method
- Assay type: cell-based
- conditionNotes: strain resistant to the respective antibiotic (Table 2)

# compound, testValue
records = [
    ("O=C(Cc1cccs1)N[C@@H]1C(=O)N2C(C(=O)[O-])=C(C[n+]3ccccc3)CS[C@H]12 [CE, Cephaloridine]", "25 mg/L"),
    ("[H]/N=C(/N)N[C@H]1[C@H](O)[C@@H](O)[C@H](O[C@@H]2O[C@@H](C)[C@](O)(C=O)[C@H]2O[C@@H]2O[C@@H](CO)[C@H](O)[C@@H](O)[C@@H]2NC)[C@@H](N/C(N)=N\\[H])[C@@H]1O [SM, Streptomycin]", "100 mg/L"),
    ("NC[C@H]1O[C@H](O[C@H]2[C@H](O)[C@@H](O[C@H]3O[C@H](CO)[C@@H](O)[C@H](N)[C@H]3O)[C@H](N)C[C@@H]2N)[C@H](O)[C@@H](O)[C@@H]1O [KM, Kanamycin]", "200 mg/L"),
    ("O=C(N[C@H](CO)[C@H](O)c1ccc([N+](=O)[O-])cc1)C(Cl)Cl [CP, Chlorampheniocol]", "50 mg/L"),
    ("CN(C)[C@@H]1C(O)=C(C(N)=O)C(=O)[C@@]2(O)C(O)=C3C(=O)c4c(O)cccc4[C@@](C)(O)[C@H]3C[C@@H]12 [TC, Tetracycline]", "25 mg/L"),
]

Please examine the following record next.
Item CC1(C)S[C@@H]2[C@H](NC(=O)Cc3ccccc3)C(=O)N2[C@H]1C(=O)O [PG, Penicillin G] with Escherichia coli - Minimum growth inhibiting concentration (MIC)?
> 100 mg/L
